Expt 2 EC50 by entry:
Test system: HepG2 B6 cells (STAT-sPAP reporter)
Assay: OSM-GST mutant driven sPAP production in HepG2 B6 assay
Type: cell-based, human
The figure you give is taken to be in µg/mL; do not add the unit.

molecule: (12) K19A: OSM-GST fusion, alanine for Lys 19 (protein, left off: a dimerising Fc or GST; large carriers; small tags and cut ends) AAIGSCSKEYRVLLGQLQAQTDLMQDTSRLLDPYIRIQGLDVPKLREHCRERPGAFPSEETLRGLGRRGFLQTLNATLGCVLHRLADLEQRLPKAQDLERSGLNIEDLEKLQMARPNILGLRNNIYCMAQLLDNSDTAEPTKAGRGASQPPTPTPASDAFQRKLEGCRFLHGYHRFMHSVGRVFSKWGESPNRSRR
scale_unit: µg/mL
Expt 2 EC50: 0.0119
//
molecule: (16) M113A: OSM-GST fusion, alanine for Met 113 (protein, left off: a dimerising Fc or GST; large carriers; small tags and cut ends) AAIGSCSKEYRVLLGQLQKQTDLMQDTSRLLDPYIRIQGLDVPKLREHCRERPGAFPSEETLRGLGRRGFLQTLNATLGCVLHRLADLEQRLPKAQDLERSGLNIEDLEKLQAARPNILGLRNNIYCMAQLLDNSDTAEPTKAGRGASQPPTPTPASDAFQRKLEGCRFLHGYHRFMHSVGRVFSKWGESPNRSRR
scale_unit: µg/mL
Expt 2 EC50: 0.025
//
molecule: (5) R11A: OSM-GST fusion, alanine for Arg 11 (protein, left off: a dimerising Fc or GST; large carriers; small tags and cut ends) AAIGSCSKEYAVLLGQLQKQTDLMQDTSRLLDPYIRIQGLDVPKLREHCRERPGAFPSEETLRGLGRRGFLQTLNATLGCVLHRLADLEQRLPKAQDLERSGLNIEDLEKLQMARPNILGLRNNIYCMAQLLDNSDTAEPTKAGRGASQPPTPTPASDAFQRKLEGCRFLHGYHRFMHSVGRVFSKWGESPNRSRR
scale_unit: µg/mL
Expt 2 EC50: 0.0277

What the record says about (17) P116A: OSM-GST fusion, alanine for Pro 116 (protein, left off: a dimerising Fc or GST; large carriers; small tags and cut ends) AAIGSCSKEYRVLLGQLQKQTDLMQDTSRLLDPYIRIQGLDVPKLREHCRERPGAFPSEETLRGLGRRGFLQTLNATLGCVLHRLADLEQRLPKAQDLERSGLNIEDLEKLQMARANILGLRNNIYCMAQLLDNSDTAEPTKAGRGASQPPTPTPASDAFQRKLEGCRFLHGYHRFMHSVGRVFSKWGESPNRSRR : Expt 2 EC50 is 0.015

Values compiled from patent US7291332B2.
